Where do these numbers come from? They come from paper PMC5059921.

# Tested on: MRC5 (human normal lung fibroblasts)
# testProtocol: SRB in vitro cytotoxicity screening (toxicity to normal cells)
# Assay type: cell-based
# conditionsUsed: Homo sapiens, MRC5; isolated compounds, 72 h, value in brackets; read-out: IC50 in μg/ml (μM) (MRC5) 72 h (converted)
reportedProperty: IC50 (µM)
Please respond with the number in µM and leave the unit unwritten.

C=CC(C)(C)c1cc2cc3c(cc2oc1=O)O[C@H](C(C)(C)O)C3 [Chalepin, chalepin] | 74.5

As a next step, examine the molecule that follows.
Kindly note the recorded IC50 for C=CC(=C)CCCC(C)CCCC(C)CCCC(C)C (stereo not shown) , which is 278

---

Reported IC50 values for a set of compounds
# System: A549 cell line
# testProtocol: SRB in vitro cytotoxicity screening
# Format: cell-based, human
# conditionsUsed: Homo sapiens, A549; isolated compounds, 48 h; read-out: IC50 in μg/ml (μM) (A549) 48 h (converted)
# Procedure: The human cell lines A549 (lung cancer) and Ca Ski (cervical cancer) were cultured as monolayer in RPMI 1640 growth media whereas HCT-116 (colon cancer) and MRC5 (human normal lung fibroblasts) was cultured in McCoy’s 5A and EMEM medium, respectively. All cells were purchased from the American Tissue Culture Collection (ATCC, USA). […]

Cn1c(-c2ccc3c(c2)OCO3)cc(=O)c2ccccc21 [Graveoline, graveoline] | 76.3 µg/mL
COc1c2ccoc2cc2oc(=O)ccc12 [Bergapten, bergapten] | > 100 µg/mL
CC(=O)CCCCc1ccc2c(c1)OCO2 [Moskachan B, moskachan B] | > 100 µg/mL
C=CC(=C)CCCC(C)CCCC(C)CCCC(C)C (stereo not shown) [Neophytadiene, neophytadiene] | 69.2 µg/mL
C=CC(C)(C)c1cc2cc3c(cc2oc1=O)OC(C(C)(C)OC(C)=O)C3 (stereo not shown) [Rutamarin, rutamarin] | 56.3 µg/mL

Note to self: IC50 recorded for CC(=O)CCCCCCc1ccc2c(c1)OCO2 [Moskachan D, moskachan D] was 77.5 µg/mL

// sample COc1cc2c(c(O)c1OC)c(=O)c1ccccc1n2C [Arborinine, arborinine] , its IC50 was 27.7 µg/mL

---

IC50: recorded values
# Tested on: MRC5 (human normal lung fibroblasts)
# testProtocol: SRB in vitro cytotoxicity screening (toxicity to normal cells)
# Type: cell-based
# conditionsUsed: Homo sapiens, MRC5; isolated compounds, 72 h, value in brackets; read-out: IC50 in μg/ml (μM) (MRC5) 72 h (converted)
Numbers only here, please. The scale is µM.

The reported IC50 of the compound COc1cc2nc3occc3c(OC)c2cc1OC was 289

Kindly note the recorded IC50 for CC(=O)CCCCCCc1ccc2c(c1)OCO2 , which is 366

Memo: COc1cc2c(c(O)c1OC)c(=O)c1ccccc1n2C , reported IC50: 73

Item: Cn1c(-c2ccc3c(c2)OCO3)cc(=O)c2ccccc21 | IC50: 250
